molecular target: wild-type EGFR (Homo sapiens, UniProt P00533); construct: purchased Signalchem; experiment: Enzymology experiment in vitro (HTRF/FRET kinase activity), wild-type EGFR; format: biochemical; conditions: HTRF KinEASE-TK, read-out: EGFR (WT) IC50
Sequence (P00533 25-1210): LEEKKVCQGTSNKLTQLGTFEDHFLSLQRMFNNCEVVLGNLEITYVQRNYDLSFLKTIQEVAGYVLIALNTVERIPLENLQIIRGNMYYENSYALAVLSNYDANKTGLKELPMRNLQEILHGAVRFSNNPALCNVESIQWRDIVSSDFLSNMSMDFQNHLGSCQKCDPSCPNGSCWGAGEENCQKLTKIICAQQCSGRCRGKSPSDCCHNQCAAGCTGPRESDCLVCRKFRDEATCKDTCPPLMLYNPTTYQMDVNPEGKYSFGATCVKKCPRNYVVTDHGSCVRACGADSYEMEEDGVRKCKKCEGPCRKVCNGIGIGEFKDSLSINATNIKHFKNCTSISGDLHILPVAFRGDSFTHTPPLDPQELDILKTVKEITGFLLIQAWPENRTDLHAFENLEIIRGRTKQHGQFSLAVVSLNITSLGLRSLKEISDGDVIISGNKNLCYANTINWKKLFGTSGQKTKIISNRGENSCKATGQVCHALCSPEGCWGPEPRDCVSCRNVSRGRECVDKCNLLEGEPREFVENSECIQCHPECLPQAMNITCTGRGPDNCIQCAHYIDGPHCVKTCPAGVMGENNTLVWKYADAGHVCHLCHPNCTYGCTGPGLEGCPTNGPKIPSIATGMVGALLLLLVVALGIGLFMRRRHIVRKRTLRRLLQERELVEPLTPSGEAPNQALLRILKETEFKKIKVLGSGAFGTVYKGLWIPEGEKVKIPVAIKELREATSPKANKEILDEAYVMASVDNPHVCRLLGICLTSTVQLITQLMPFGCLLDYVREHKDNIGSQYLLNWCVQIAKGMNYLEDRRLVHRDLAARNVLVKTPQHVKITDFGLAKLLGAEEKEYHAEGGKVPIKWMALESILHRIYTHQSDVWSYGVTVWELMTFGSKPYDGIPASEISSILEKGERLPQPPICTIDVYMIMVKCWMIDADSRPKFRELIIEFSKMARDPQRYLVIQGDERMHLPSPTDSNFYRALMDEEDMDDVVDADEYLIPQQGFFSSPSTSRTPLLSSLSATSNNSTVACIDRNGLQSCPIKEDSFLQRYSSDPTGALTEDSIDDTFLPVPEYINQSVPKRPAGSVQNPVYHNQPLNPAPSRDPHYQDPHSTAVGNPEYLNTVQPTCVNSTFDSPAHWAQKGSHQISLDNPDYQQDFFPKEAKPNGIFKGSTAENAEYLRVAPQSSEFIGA
pIC50: −log10 of the molar value.
Endpoint label: pIC50

Compound	Endpoint label	Value reported
Cn1cc(-c2cc(Nc3ncc(Br)c(Nc4ccc5nccnc5c4P(C)(C)=O)n3)c3c(c2N2CCOCC2)CCO3)cn1 [Compound 17]	pIC50	8.44
COc1cc(N2CCCN(C)CC2)c(-c2cnn(C)c2)cc1Nc1ncc(Br)c(Nc2ccc3nccnc3c2P(C)(C)=O)n1 [compound 12]	pIC50	8.80
COc1cc(N2CCN(C3(C)COC3)CC2)c(-c2cnn(C)c2)cc1Nc1ncc(Br)c(Nc2ccc3nccnc3c2P(C)(C)=O)n1 [compound 184]	pIC50	8.65
COc1cc(N2CC[C@@H]3CCN(CC4CC4)[C@@H]3C2)c(-c2cnn(C)c2)cc1Nc1ncc(Br)c(Nc2ccc3nccnc3c2P(C)(C)=O)n1 (single isomer, unassigned) [234b]	pIC50	8.26
CCc1cnc(Nc2cc(-c3cnn(C)c3)c(N3CCOCC3)cc2OC)nc1Nc1ccc2nccnc2c1P(C)(C)=O [Compound 31]	pIC50	9.42
COc1cc(N2CCC3CCN(CCF)C3C2)c(-c2cnn(C)c2)cc1Nc1ncc(Br)c(Nc2ccc3nccnc3c2P(C)(C)=O)n1 (stereo not shown) [compound 205]	pIC50	8.51
COc1cc(N2CCC3CCN(CCOC(C)C)C3C2)c(-c2cnn(C)c2)cc1Nc1ncc(Br)c(Nc2ccc3nccnc3c2P(C)(C)=O)n1 (stereo not shown) [compound 206]	pIC50	8.07
[2H]C([2H])([2H])OCCN1CCN(c2cc(OC)c(Nc3ncc(Br)c(Nc4ccc5nccnc5c4P(C)(C)=O)n3)cc2-c2cnn(C)c2)CC1 [compound 181]	pIC50	8.45
COc1cc(N2CCC3CCN(C)C3C2)c(-c2cnn(C)c2)cc1Nc1ncc(Br)c(Nc2ccc3nccnc3c2P(C)(C)=O)n1 (stereo not shown) [compound 168]	pIC50	8.59
COc1cc(N2CCOCC2)c(-c2cnn(C)c2)cc1Nc1ncc(Br)c(Nc2cc(C)c3nccnc3c2P(C)(C)=O)n1 [Compound 33]	pIC50	7.30
COc1cc(N2CCC3(CCN(C)CC3)CC2)c(-c2cnn(C)c2)cc1Nc1ncc(Br)c(Nc2cc3c(cc2N(C)S(C)(=O)=O)CC3)n1 [compound 196]	pIC50	8.47
Cn1cc(-c2cc(Nc3ncc(Br)c(Nc4ccc5nccnc5c4P(C)(C)=O)n3)c(OCC(F)(F)F)nc2N2CCOCC2)cn1 [compound 34]	pIC50	7.82
COc1cc(N2CCC3(CC2)CN(C)CCO3)c(-c2cnn(C)c2)cc1Nc1ncc(Br)c(Nc2ccc3nccnc3c2P(C)(C)=O)n1 [compound 144]	pIC50	8.56

* * *

Reported values of log10 IC50 for individual entries
target: L858R/T790M/C797S triple mutant EGFR (Homo sapiens, UniProt P00533, C797S/L858R/T790M); construct: purchased Signalchem; experiment: Enzymology experiment in vitro (HTRF/FRET kinase activity), L858R/T790M/C797S triple mutant EGFR; assay type: biochemical; settings: HTRF KinEASE-TK, read-out: EGFR (L858R/T790M/C797S) IC50
Sequence (P00533 25-1210 T790M/C797S/L858R): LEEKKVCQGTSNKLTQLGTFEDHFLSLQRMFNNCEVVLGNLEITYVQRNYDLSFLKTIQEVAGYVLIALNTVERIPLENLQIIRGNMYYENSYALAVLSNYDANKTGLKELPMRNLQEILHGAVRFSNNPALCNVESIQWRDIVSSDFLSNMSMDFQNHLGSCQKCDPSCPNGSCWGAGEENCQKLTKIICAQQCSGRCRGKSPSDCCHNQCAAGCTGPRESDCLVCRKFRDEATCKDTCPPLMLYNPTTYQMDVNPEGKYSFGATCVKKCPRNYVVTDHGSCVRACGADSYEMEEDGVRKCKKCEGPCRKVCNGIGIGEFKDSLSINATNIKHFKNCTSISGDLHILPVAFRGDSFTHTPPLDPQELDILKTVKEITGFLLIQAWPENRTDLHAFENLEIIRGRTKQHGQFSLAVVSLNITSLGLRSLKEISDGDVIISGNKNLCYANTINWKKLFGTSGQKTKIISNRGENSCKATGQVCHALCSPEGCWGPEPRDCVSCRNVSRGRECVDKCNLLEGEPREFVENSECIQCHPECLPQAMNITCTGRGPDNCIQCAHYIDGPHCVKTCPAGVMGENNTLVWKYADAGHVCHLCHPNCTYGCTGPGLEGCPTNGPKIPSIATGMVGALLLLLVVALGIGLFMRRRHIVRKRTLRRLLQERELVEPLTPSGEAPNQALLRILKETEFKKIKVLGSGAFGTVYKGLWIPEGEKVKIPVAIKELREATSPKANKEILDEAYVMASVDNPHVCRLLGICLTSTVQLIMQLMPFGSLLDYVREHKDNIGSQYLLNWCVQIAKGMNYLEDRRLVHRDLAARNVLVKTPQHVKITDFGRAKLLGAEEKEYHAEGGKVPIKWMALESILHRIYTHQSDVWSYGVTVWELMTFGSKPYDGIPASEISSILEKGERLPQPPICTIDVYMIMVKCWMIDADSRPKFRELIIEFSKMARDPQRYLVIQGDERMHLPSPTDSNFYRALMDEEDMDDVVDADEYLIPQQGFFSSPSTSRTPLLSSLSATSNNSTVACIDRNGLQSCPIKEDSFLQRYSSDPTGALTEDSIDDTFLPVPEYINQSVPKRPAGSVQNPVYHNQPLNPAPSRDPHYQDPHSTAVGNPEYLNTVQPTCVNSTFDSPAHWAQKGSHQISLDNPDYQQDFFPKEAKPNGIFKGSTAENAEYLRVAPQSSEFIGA
Endpoint label: log10 IC50 (log10 of the value in nM)

>>> df
                                 mol_smiles  endpoint_label  value_reported
0  COc1cc(N2CCOCC2)c(-c2cn[nH]c2)cc1Nc1ncc(C)c(Nc2ccc3nccnc3c2P(C)(C)=O)n1      log10 IC50           -0.82
1  COc1cc(N2CCOCC2)c(-c2cnn(C)c2)cc1Nc1ncc(Br)c(Nc2ccccc2NS(C)(=O)=O)n1      log10 IC50           -2.00
2  COc1cc(C(=O)N(C)C)c(-c2cnn(C)c2)cc1Nc1ncc(Br)c(Nc2ccc3nccnc3c2P(C)(C)=O)n1      log10 IC50            0.45
3  COc1cc(N2CCOCC2)c(-c2cnn(C)c2)cc1Nc1ncc(Cl)c(Nc2ccc3nccnc3c2P(C)(C)=O)n1      log10 IC50           -0.70
4  COc1nc(N2CCOCC2)c(-c2cnn(C)c2)cc1Nc1ncc(Br)c(Nc2ccc3nccnc3c2P(C)(C)=O)n1      log10 IC50           -0.64
5  COc1cc(N2CCC(N3CC(CF)C3)CC2)c(-c2cnn(C)c2)cc1Nc1ncc(Br)c(Nc2ccc3nccnc3c2P(C)(C)=O)n1      log10 IC50           -0.60
6  COc1cc(N2CCOCC2)c(-c2cnn(C)c2)cc1Nc1nc(Nc2ccccc2P(C)(C)=O)c2ccccc2n1      log10 IC50            1.34

* * *

target: Ba/F3 L858R/T790M/C797S EGFR triple mutant cell line (Homo sapiens, UniProt P00533, T790M/C797S/L858R, cells depend on it); assay: Cell proliferation inhibition experiment (CellTiter-Glo), Ba/F3 L858R/T790M/C797S; assay type: cell-based; conditions: 72 hours, Cell Titer-Glo, read-out: Ba/F3 (L858R/T790M/C797S) IC50
Sequence (P00533 whole entry T790M/C797S/L858R): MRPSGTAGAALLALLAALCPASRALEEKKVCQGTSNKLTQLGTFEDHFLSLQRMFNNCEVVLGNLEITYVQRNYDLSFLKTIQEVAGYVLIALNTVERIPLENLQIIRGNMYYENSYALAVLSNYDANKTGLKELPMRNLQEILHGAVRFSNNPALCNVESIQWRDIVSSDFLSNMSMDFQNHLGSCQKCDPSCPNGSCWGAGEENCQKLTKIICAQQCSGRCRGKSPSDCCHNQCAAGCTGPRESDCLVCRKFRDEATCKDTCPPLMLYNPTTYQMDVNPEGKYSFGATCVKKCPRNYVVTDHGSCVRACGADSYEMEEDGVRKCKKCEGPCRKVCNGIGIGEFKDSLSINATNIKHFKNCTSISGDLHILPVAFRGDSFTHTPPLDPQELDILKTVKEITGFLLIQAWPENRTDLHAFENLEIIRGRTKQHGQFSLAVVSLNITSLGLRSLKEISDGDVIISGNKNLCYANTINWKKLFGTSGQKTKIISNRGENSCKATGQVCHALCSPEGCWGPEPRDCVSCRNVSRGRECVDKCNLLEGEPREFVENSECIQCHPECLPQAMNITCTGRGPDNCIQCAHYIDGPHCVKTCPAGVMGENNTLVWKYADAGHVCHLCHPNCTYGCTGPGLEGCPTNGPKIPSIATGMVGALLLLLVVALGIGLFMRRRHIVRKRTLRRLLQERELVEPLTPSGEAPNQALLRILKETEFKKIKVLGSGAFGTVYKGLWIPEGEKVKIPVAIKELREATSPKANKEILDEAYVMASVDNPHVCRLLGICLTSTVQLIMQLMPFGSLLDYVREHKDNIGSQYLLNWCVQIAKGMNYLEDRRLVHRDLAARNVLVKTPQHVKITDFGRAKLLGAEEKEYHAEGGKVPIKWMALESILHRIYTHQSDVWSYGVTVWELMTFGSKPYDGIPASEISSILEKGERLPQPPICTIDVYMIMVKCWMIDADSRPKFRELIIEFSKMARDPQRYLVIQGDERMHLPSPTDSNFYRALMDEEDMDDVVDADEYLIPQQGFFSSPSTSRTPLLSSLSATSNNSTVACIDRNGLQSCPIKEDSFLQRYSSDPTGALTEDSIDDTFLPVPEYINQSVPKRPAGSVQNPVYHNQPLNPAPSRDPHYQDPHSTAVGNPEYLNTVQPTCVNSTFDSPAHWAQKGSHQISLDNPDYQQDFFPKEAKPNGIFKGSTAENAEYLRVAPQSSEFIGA
Endpoint label: GI50 (nM)

>>> df
                                   compound  endpoint_label  value_reported
0  COc1cc(S(=O)(=O)N(C)C)c(-c2cnn(C)c2)cc1Nc1ncc(Br)c(Nc2ccc3nccnc3c2P(C)(C)=O)n1            GI50             327
1  COc1cc(N2CCOCC2)c(-c2cnn(C)c2)cc1Nc1ncc(Cl)c(Nc2ccc3nccnc3c2P(C)(C)=O)n1            GI50            13.5
2  COc1cc(N2CCC(N3CC(C)OC(C)C3)CC2)c(-c2cnn(C)c2)cc1Nc1ncc(Br)c(Nc2ccc3nccnc3c2P(C)(C)=O)n1 (racemic)            GI50            7.85
3  COc1cc(N2CCNC(=O)C2)c(-c2cnn(C)c2)cc1Nc1ncc(Br)c(Nc2ccc3nccnc3c2P(C)(C)=O)n1            GI50            61.9
4  COc1cc(N2CCC(OCC3CC3)CC2)c(-c2cnn(C)c2)cc1Nc1ncc(Br)c(Nc2ccc3nccnc3c2P(C)(C)=O)n1            GI50            7.29
5  COc1cc(N2CCOCC2)c(-c2cnn(C)c2)cc1Nc1nc(Nc2ccccc2P(C)(C)=O)c2ccccc2n1            GI50             444

* * *

target: Ba/F3 De119/T790M/C797S EGFR triple mutant cell line (Homo sapiens, UniProt P00533, T790M/C797S, cells depend on it, form not given); assay: Cell proliferation inhibition experiment (CellTiter-Glo), Ba/F3 De119/T790M/C797S; type: cell-based; conditions: Ba/F3 Del19/T790M/C797S EGFR triple mutant cells, 72 hours, Cell Titer-Glo; read-out: Ba/F3 (Del19/T790M/C797S) IC50
Sequence (P00533 with tags, fused parts or gaps DEL746-750/T790M/C797S, form open): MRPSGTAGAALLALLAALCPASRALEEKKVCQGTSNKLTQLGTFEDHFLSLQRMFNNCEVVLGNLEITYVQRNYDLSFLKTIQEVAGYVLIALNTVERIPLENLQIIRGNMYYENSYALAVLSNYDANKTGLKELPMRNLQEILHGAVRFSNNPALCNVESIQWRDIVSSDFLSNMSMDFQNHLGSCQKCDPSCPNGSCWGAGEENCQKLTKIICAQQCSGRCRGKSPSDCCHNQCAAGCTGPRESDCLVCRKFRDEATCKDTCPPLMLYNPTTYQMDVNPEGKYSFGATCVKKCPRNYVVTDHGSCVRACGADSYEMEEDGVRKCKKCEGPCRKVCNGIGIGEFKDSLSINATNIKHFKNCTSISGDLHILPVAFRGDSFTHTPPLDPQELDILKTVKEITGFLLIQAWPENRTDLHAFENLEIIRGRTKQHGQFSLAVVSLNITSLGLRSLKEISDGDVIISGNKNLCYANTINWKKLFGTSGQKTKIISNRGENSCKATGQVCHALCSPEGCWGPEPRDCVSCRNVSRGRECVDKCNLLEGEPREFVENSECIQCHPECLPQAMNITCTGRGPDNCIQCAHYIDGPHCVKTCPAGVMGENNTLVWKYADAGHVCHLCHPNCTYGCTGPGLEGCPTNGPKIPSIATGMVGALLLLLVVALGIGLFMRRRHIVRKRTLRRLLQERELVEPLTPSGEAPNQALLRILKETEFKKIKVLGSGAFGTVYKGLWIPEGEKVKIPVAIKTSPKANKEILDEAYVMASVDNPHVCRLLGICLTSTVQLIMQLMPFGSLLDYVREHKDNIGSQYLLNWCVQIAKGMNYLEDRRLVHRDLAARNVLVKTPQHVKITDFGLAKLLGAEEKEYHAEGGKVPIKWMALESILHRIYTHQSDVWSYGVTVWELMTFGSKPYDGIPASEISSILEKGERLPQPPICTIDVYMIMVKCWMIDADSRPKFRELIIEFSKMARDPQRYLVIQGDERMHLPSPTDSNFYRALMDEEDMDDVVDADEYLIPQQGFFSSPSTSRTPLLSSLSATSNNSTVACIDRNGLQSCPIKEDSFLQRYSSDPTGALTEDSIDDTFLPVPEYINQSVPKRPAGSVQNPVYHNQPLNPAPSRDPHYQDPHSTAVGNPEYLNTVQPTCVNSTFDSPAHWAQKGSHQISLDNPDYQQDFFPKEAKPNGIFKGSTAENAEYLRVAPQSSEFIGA
For each record, check the reported GI50: if it is below 30 nM write True, else write False.

                                    molecule  group_label
 0  COc1cc(N2CCC(N(C)C)CC2)c(-c2cnn(C)c2)cc1Nc1ncc(Br)c(Nc2ccc3nccnc3c2P(C)(C)=O)n1         True
 1  COc1cc(N2CCN3CCCCC3C2)c(-c2cnn(C)c2)cc1Nc1ncc(Br)c(Nc2ccc3nccnc3c2P(C)(C)=O)n1 (stereo not shown)         True
 2  COc1cc(N2CCOCC2)c(-c2cnn(C)c2)cc1Nc1ncc(Br)c(Nc2cc3c(cc2N(C)S(C)(=O)=O)CC3)n1         True
 3  COc1cc(N2CCC(OCC3CC3)CC2)c(-c2cnn(C)c2)cc1Nc1ncc(Br)c(Nc2ccc3nccnc3c2P(C)(C)=O)n1         True
 4  COc1cc(N2CCN(S(=O)(=O)C3CC3)CC2)c(-c2cnn(C)c2)cc1Nc1ncc(Br)c(Nc2ccc3nccnc3c2P(C)(C)=O)n1         True
 5  COc1cc(N2CCOCC2)c(-c2cncn2C)cc1Nc1ncc(Br)c(Nc2ccc3nccnc3c2P(C)(C)=O)n1        False
 6  COc1cc(N2CCC3(CC2)CCN(C(C)(C)CF)CC3)c(-c2cnn(C)c2)cc1Nc1ncc(Br)c(Nc2ccc3nccnc3c2P(C)(C)=O)n1         True
 7  COc1cc(N2CCOCC2)c(-c2cncnc2)cc1Nc1ncc(C)c(Nc2ccc3nccnc3c2P(C)(C)=O)n1        False
 8  COc1cc(N2CCN3CCC[C@@H]3C2)c(-c2cnn(C)c2)cc1Nc1ncc(Br)c(Nc2ccc3nccnc3c2P(C)(C)=O)n1         True
 9  COc1cc(N2CC[C@H](OC)[C@H](F)C2)c(-c2cnn(C)c2)cc1Nc1ncc(Br)c(Nc2ccc3nccnc3c2P(C)(C)=O)n1         True
10  COc1cc(N2CCC(N3CC4(CN(C)C4)C3)CC2)c(-c2cnn(C)c2)cc1Nc1ncc(Br)c(Nc2ccc3nccnc3c2P(C)(C)=O)n1        False
11  COc1nc(N2CCC3(CC2)COC3)c(-c2cnn(C)c2)cc1Nc1ncc(Br)c(Nc2ccc3nccnc3c2P(C)(C)=O)n1        False
12  CNC(=O)c1ccccc1Nc1nc(Nc2cc(-c3cnn(C)c3)c(N3CCOCC3)cc2OC)ncc1Br         True
